# shrunken log2 fold change per record follows
- System: Escherichia coli TOP10
- run.description: shrunken log2 fold change of peptide-encoding DNA abundance (4.5 h post-induction vs induction); higher = less antimicrobial activity (less host growth inhibition)
- condition.info: time post-induction: 4.5 h; library: site-saturation at positions 5, 18, 19, 20
# answer = number (no unit)

residue.codes | assay.system | measure.name | test.result
RRIRSRPPRLPRPRPRPAFMPRP | Escherichia coli TOP10 | shrunken log2 fold change | 0.309
RRIRFRPPRLPRPRPRPYHAPRP | Escherichia coli TOP10 | shrunken log2 fold change | -0.0961

Prompt: Report shrunken log2 fold change, nothing else, for this sequence: `RRIRVRPPRLPRPRPRPPKSPRP`
Response: 0.1

Prompt: Hello, please tell me recorded shrunken log2 fold change for this one: `RRIRWRPPRLPRPRPRPHQWPRP`
Response: -0.0271

Prompt: Give a short answer stating reported shrunken log2 fold change for `RRIRCRPPRLPRPRPRPVLNPRP` .
Response: -0.396

Prompt: Identify shrunken log2 fold change associated with the sequence `RRIRFRPPRLPRPRPRPTFDPRP`
Response: -0.138

Prompt: Identify shrunken log2 fold change associated with the sequence `RRIRQRPPRLPRPRPRPWYCPRP`
Response: -1.83

Prompt: Please report shrunken log2 fold change for the following sequence: `RRIRLRPPRLPRPRPRPLWRPRP`
Response: 0.785

Prompt: Return reported shrunken log2 fold change. Input sequence: `RRIRMRPPRLPRPRPRPYKDPRP`
Response: -0.947

Prompt: For the sequence `RRIRCRPPRLPRPRPRPQYTPRP` , report shrunken log2 fold change.
Response: -0.946

* * *

- Test system: Escherichia coli TOP10
- run.description: shrunken log2 fold change of peptide-encoding DNA abundance (4.5 h post-induction vs induction); higher = less antimicrobial activity (less host growth inhibition)
- condition.info: time post-induction: 4.5 h; library: site-saturation at positions 5, 18, 19, 20
measure.name: shrunken log2 fold change
// no unit, no text: just the number

residue.codes | shrunken log2 fold change
RRIRQRPPRLPRPRPRPLLIPRP | -0.141

Prompt: Query shrunken log2 fold change for `RRIRRRPPRLPRPRPRPMGQPRP`
Response: 0.267

Prompt: Let me know recorded shrunken log2 fold change for `RRIRDRPPRLPRPRPRPHSCPRP` , thanks.
Response: -0.00804

* * *

- Tested on: Escherichia coli TOP10;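 note: peptides expressed intracellularly from a pBAD plasmid library in pooled LB shake-flask culture, induced with 0.3% L-arabinose, DNA abundance read by NGS, three biological replicates, DESeq2 with apeglm shrinkage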
- run.description: shrunken log2 fold change of peptide-encoding DNA abundance (4.5 h post-induction vs induction); higher = less antimicrobial activity (less host growth inhibition)
- condition.info: time post-induction: 4.5 h; library: site-saturation at positions 5, 18, 19, 20
Label criterion met when shrunken log2 fold change >= -0.4; otherwise criterion not met.

residue.codes | category
RRIRTRPPRLPRPRPRPSRPPRP | criterion met

Prompt: Is it the case that `RRIRPRPPRLPRPRPRPGVPPRP` has shrunken log2 fold change reaching or exceeding -0.4?
Response: criterion met

Prompt: Determine whether measured shrunken log2 fold change meets or exceeds -0.4 for `RRIRLRPPRLPRPRPRPWALPRP`
Response: criterion met

Prompt: State whether the measured shrunken log2 fold change reaches -0.4, counting equality as reaching it, for `RRIRFRPPRLPRPRPRPLWHPRP`
Response: criterion met

Prompt: Hi team, for `RRIRLRPPRLPRPRPRPDNIPRP` , is the recorded shrunken log2 fold change at or above -0.4?
Response: criterion not met

Prompt: Confirm if shrunken log2 fold change reported for the sequence `RRIRERPPRLPRPRPRPVDEPRP` is -0.4 or above.
Response: criterion not met

Prompt: Please indicate if the recorded shrunken log2 fold change for `RRIRGRPPRLPRPRPRPMKTPRP` meets or exceeds -0.4.
Response: criterion met

Prompt: Decide: shrunken log2 fold change of `RRIRPRPPRLPRPRPRPTMGPRP` >= -0.4?
Response: criterion met
